System: Inhibin beta A chain (activin A)
assay protocol: INHBA (activin A) binders on microarrays, primary screen, biochemical, small-molecule microarray, 635 nm fluorescence scan (AID 1107);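 further: mouse activin A protein probed at 4.33 µg/mL on printed slides; score merges bound-protein fluorescence near 667 nm with spot signal-to-noise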
condition set: small-molecule microarray binding, higher = more signal
Assign composite z-score to each entry below.
One number for each entry.

The cases that follow already have their composite z-score on record.
compound	composite z-score
COCCOC(=O)N1C(=O)[C@@]2(c3ccccc31)[C@H](c1ccc(OCCO)cc1)N1[C@H](c3ccccc3)[C@H](c3ccccc3)OC(=O)[C@H]1[C@@H]2C(=O)N1CCCCCCC1	1.89
COCCOC(=O)N1C(=O)[C@@]2(c3cc(C#CCNC(N)=O)ccc31)[C@H](c1ccc(OCCO)cc1)N1[C@H](c3ccccc3)[C@H](c3ccccc3)OC(=O)[C@H]1[C@@H]2C(=O)NC[C@H](O)c1ccccc1	1.43

// C=CC1c2cc(O)c(OC)cc2CCN1Cc1ccc([N+](=O)[O-])o1 (stereo not drawn) : composite z-score value = 0.87

---

Tested on: Human papillomavirus type 1a protein E7 (residues 44-93)
assay protocol: HPV1a E7 fragment binders on microarrays, primary screen, biochemical, small-molecule microarray, residues 44-93, 635 nm fluorescence (AID 1108);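 further: E7 fragment applied at 1 µg/mL in TBST for 1 h at 4 C; score combines spot fluorescence with its signal to noise ratio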
condition set: small-molecule microarray binding, fluorescence 635 nm; higher = more signal
measured endpoint: composite z-score
One number for each entry.

Study these solved cases before continuing.
compound	system name	composite z-score
Cc1ccccc1C(O)C1C=CC2C(=O)NC(=O)C2N1Nc1ccc(Cl)cc1Cl (centres undefined)	Human papillomavirus type 1a protein E7 (residues 44-93)	-0.198
CC(=O)NCCCC[C@@H]1NC(=O)[C@@H]2C[C@H](C(=O)NCCCCCCN)[C@H](c3cccc(OCCO)c3)N2C1=O	Human papillomavirus type 1a protein E7 (residues 44-93)	0.601
C=CCNC(=O)[C@H]1[C@@H]2C(=O)O[C@@H](c3ccccc3)[C@@H](c3ccccc3)N2[C@@H](c2ccc(OCCO)cc2)[C@]12C(=O)N(C(=O)OCCOC)c1ccc(C#Cc3ccc(OC)cc3)cc12	Human papillomavirus type 1a protein E7 (residues 44-93)	1.4

Then there is this compound:
Reported composite z-score for COC(=O)C1N=C(c2ccc(OCCCO)cc2)N(c2ccccc2)O1 (centres undefined) was 0.154

---

assay protocol: P. aeruginosa biofilm formation inhibitors, primary screen, strain PAO1, LB-PBS medium, absorbance 600 nm (AID 1176); further: test concentration not given here
condition set: P. aeruginosa PAO1 growth/biofilm, A600, 12 h; higher = more signal
measured endpoint: z-score
Numbers only.

compound	observed
CN1C(=O)C2C(C1=O)C1C=C(CCCO)C2C(C2CC2)N1Cc1cc2c(cc1Br)OCO2 (stereo not given)	0.0721
COC(=O)C1N=C(c2ccc(OCCCO)cc2)N(c2ccccc2)O1 (stereo not given)	-1.1
C=C[C@@H](C)[C@H](O)c1ccc(OCCO)cc1	0.0852
CCCCC=C[C@@H](NC(=O)c1ccccc1)c1ccccc1	1.43

Kindly consider the entry below.
Sample CCN(CC)c1ccc(N2CC=CC34O[C@@H]5/C=C\CCC(C)OC(=O)C5[C@H]3C(=O)N(C(C)CO)[C@@H]4C2=O)cc1 (stereo not given in full) ; z-score observed: -1.28

---

assay protocol: PSAC antagonists in infected red cells, primary screen, cell-based, P. falciparum Indochina, OD700, 18 h (AID 1157)
condition set: P. falciparum Indochina infected erythrocytes, osmotic lysis OD700, 18 h; higher = more signal, called active from +8 up or from −8 down
Activity calls are given as the source filed them.
Assign z-score to each entry below.

Examples with their reported z-score follow.
molecule	z-score
COC(=O)[C@@]1(Cc2ccc(OC)cc2)[C@H]2c3cc(C(=O)N4CCCC4)n(Cc4cc(C)n(C)n4)c3C[C@H]2CN1C(=O)c1ccccc1	0.494 (inactive)
O=C1O[C@H](c2ccccc2)[C@H](c2ccccc2)N2[C@H]1[C@@H](C(=O)Nc1nc3ccccc3s1)[C@]1(C(=O)Nc3ccc(C#CC4=CCCCC4)cc31)[C@H]2c1ccc(O)cc1	0.193 (inactive)

# batch: return z-score for each of the 2 molecules below
1. O=C(O)[C@@H]1C[C@@H]2C(=O)N3CCC[C@H]3C(=O)N2[C@@H]1c1cccc(OCCO)c1
2. O=C1C2C=CC(C(O)c3ccc(I)cc3)N(Nc3ccccc3)C2C(=O)N1c1ccccc1 (centres undefined)

["0.35 (inactive)", "1.83 (inactive)"]

---

assay protocol: FRG1 promoter luciferase signal modulators, primary screen, FRG1 inhibition for FSHD, cell-based, C2C12 myotubes, firefly/Renilla luciferase, luminescence (AID 1084)
condition set: called active from +8 up or from −8 down
Calls of active or inactive are those of the source.
I would appreciate it if you answered using one of these outcomes: True (active), False (inactive)

# count of solved cases: 3
compound	label value
C=C[C@@H](C)[C@@H](OC(=O)Nc1ccc(SC)cc1)c1ccc(OCCO)cc1	True
CC(C)C[C@@H]1NC(=O)CNC(=O)[C@@]23C(=O)N[C@@H](Cc4ccccc4)C2[C@H](C)[C@@]2(C)O[C@H]2C3/C=C/C/C=C\CNC1=O (stereo partly specified)	False
CO[C@H]1O[C@H](CO)[C@@H](OC(=O)CCc2ccccc2)[C@H](OC(=O)c2cc3ccccc3[nH]2)[C@H]1OC(=O)c1cc2ccccc2[nH]1	False

Hi team, can someone confirm the assay call for O=C1OCC=C[C@H]2OC34C=CCN(c5ccc6ccccc6c5)C(=O)[C@H]3N(CCCCCO)C(=O)[C@@H]4[C@@H]12 (stereo partly specified) ? False

Lab log entry: COCCOC(=O)N1C(=O)[C@@]2(c3cc(C#CCNC(N)=O)ccc31)[C@H](c1ccc(OCCO)cc1)N1[C@H](c3ccccc3)[C@H](c3ccccc3)OC(=O)[C@H]1[C@@H]2C(=O)NC[C@H](O)c1ccccc1 — outcome as called in the assay? False

Test call, this compound: COCC1C2CC[C@H]3C(OCc4ccc(OC)cc4)OC[C@]4(C)[C@H]3C2=C(CN4C(=O)OC(C)(C)C)[C@H](C)C1COC (stereo partly specified) False

How was COCCOC(=O)N1C(=O)[C@@]2(c3cc(C#CCNC(N)=O)ccc31)[C@H](c1ccc(OCCO)cc1)N1[C@H](c3ccccc3)[C@H](c3ccccc3)OC(=O)[C@H]1[C@@H]2C(N)=O classified in this test? False

Identify the outcome logged in this assay for the compound shown: C=C/C=C/[C@@H]1C(=C)CN([C@@H](Cc2ccccc2)C(=O)OC)[C@H]1[C@@H](O)Cc1ccccc1 False

Fill in: this test's call for CC=CC(O)C1C=CC2C(=O)NC(=O)C2N1Nc1ccccn1 (stereo unspecified) is ___ False

Any idea what this test logged for CCOC(=O)C[C@H]1[C@H](OC(=O)c2ccccc2-c2ccccc2)[C@@H](NC(=O)c2ccc3ccccc3n2)c2cc(OCCCO)ccc2N1C(=O)c1ccccc1 ? False

Recorded test outcome, item COCCCNC(=O)[C@@]1(c2ccc([N+](=O)[O-])cc2)CC(=O)N(CC23CC4CC(CC(C4)C2)C3)[C@@H]1c1ccc(CO)cc1I False

Returns: the outcome recorded for C=C(/C(=C/C[C@H](OC(=O)c1ccncc1)c1cccc(OCCO)c1)c1cnc2ccccc2c1)C(C)C in this assay. False

Entry Cc1ccc(F)cc1S(=O)(=O)N[C@@H]1CCN(Cc2cccc3[nH]ccc23)C1 : call = ? False

Answer briefly: the call reported for CCCCC(=C=CC[C@H](O)c1ccc(OCCO)cc1)C[C@H](O)c1cc(Cl)cc(Cl)c1O in this assay. False

Give the logged outcome of this assay for the following compound: COCCOC(=O)N1C(=O)[C@@]2(c3cc(C#CCCO)ccc31)[C@H](C(=O)N1CCCCCCC1)[C@H]1C(=O)O[C@H](c3ccccc3)[C@H](c3ccccc3)N1[C@@H]2c1ccccc1OCCO False

Hi, sorry to bother you, what did the test record for O=c1cccc(-c2ccc(F)cc2)o1 ? False

Outcome? COc1cc(C(O)C2C=CC3C(=O)N(Cc4ccccc4)C(=O)C3N2n2cnnc2)cc(OC)c1OC (stereo unspecified) False

Short answer needed: outcome of this test for O=C1C[C@@](C(=O)NCc2ccccc2)(c2ccc([N+](=O)[O-])cc2)[C@@H](c2ccc(CO)cc2I)N1CC12CC3CC(CC(C3)C1)C2 ? False

What was the test verdict on C=C(COC)C(=O)CC[C@H](OC(=O)c1cccnc1)c1ccc(CO)o1 ? False

Hello, I am checking results. What call was entered for C=CC[C@H](OC(=O)Nc1ccc(SC)cc1)c1ccc(OCCO)cc1 ? True

Returns: the outcome recorded for CN1C(=O)[C@@H]2[C@@H](CC(COc3ccccc3)=C([C@H](O)CCc3ccccc3)[C@@H]2CO)C1=O in this assay. False

---

Hi there, I'd appreciate the recorded composite z-score for every entry that follows.
Test system: Lefty1
assay protocol: Lefty1 binders on small-molecule microarrays, primary screen, biochemical, small-molecule microarray, 635/667 nm fluorescence (AID 1139)
condition set: small-molecule microarray binding, fluorescence 635/667; higher = more signal
Give bare numbers.

# count of solved cases: 5
compound	composite z-score
CO[C@H]1O[C@H](CO)[C@@H](OC(=O)c2ccc(Br)cc2)[C@@H]2OC(=O)[C@H](Cc3ccccc3)C/C=C/C[C@@H](Cc3ccccc3)C(=O)O[C@@H]12	0.416
COCCOC(=O)N1C(=O)[C@@]2(c3cc(C#CC4(O)CCCCCC4)ccc31)[C@H](C(=O)N1CCN(c3ncccn3)CC1)[C@H]1C(=O)O[C@H](c3ccccc3)[C@H](c3ccccc3)N1[C@@H]2c1ccccc1OCCO	0.883
COc1cc2c(cc1O)C(c1ccc(CN3CCCC3)cc1)N(C)CC2 (centres undefined)	-1.17
CN(C)CCCC[C@@H]1NC(=O)[C@@H]2C[C@H](C(=O)O)[C@H](c3cccc(OCCO)c3)N2C1=O	-0.528
COCCOC(=O)N1C(=O)[C@@]2(c3cc(C#CCCO)ccc31)[C@H](c1ccccc1OCCO)N1[C@H](c3ccccc3)[C@H](c3ccccc3)OC(=O)[C@H]1[C@@H]2C(=O)N1CCCCCCC1	1.65

Hello, I would appreciate it if you could give composite z-score for each entry below.
1. C=C(/C(=C/C[C@@H](OC(=O)c1ccncc1)c1cccc(OCCO)c1)c1cnc2ccccc2c1)C(C)C
2. C=CCC(OC(C)=O)[C@@H]1[C@@H](N(Cc2cc3ccccc3o2)C(=O)c2ccc(-c3ccccc3)cc2)c2cc(OCCCO)ccc2N1C(=O)Cc1ccc(OC)cc1 (some centres undefined)
3. COc1cc(CO)cc(I)c1O[C@H]1C=C(C(=O)NCCO)C[C@@H](NCC2CCCCC2)[C@@H]1O

1.2
0.16
0.302

Would you mind giving composite z-score for every compound in the list below?
1. COCC(=C=CC[C@H](O)c1cccc(OCCO)c1)C[C@H](O)COCc1ccccc1
2. COC(=O)c1c2oc(c1C(=O)OC)C(=O)N1CCC[C@H]1Cn1nncc1CN(Cc1ccccc1)C(=O)N[C@H](CO)CC2
3. CCC(CC)C(O)C1C=CC2C(=O)N(c3ccccc3)C(=O)C2N1Nc1ccc([N+](=O)[O-])cc1 (centres undefined)
4. NC(=O)N1C(=O)C2C(C1=O)C1C=C(CCCO)C2C(C2CC2)N1Cc1cccc(OC(F)(F)F)c1 (centres undefined)
5. COC(=O)C1N=C(c2ccc(OCCCO)cc2)N(c2ccccc2)O1 (centres undefined)
6. COCCOC(=O)N1C(=O)[C@@]2(c3cc(C#CCCO)ccc31)[C@H](C(N)=O)[C@H]1C(=O)O[C@H](c3ccccc3)[C@H](c3ccccc3)N1[C@@H]2c1ccc(OCCO)cc1

1. 0.88
2. 0.783
3. 0.138
4. 0.341
5. 0.156
6. 0.794
